# credit: patent US9029389B2

Entries and their inhibition at 10 µM values follow.
Assay target: Human 5-lipoxygenase (Homo sapiens)
Construct: purchased Cayman 60402; host or cells: insect cells
Sequence (P09917 whole entry): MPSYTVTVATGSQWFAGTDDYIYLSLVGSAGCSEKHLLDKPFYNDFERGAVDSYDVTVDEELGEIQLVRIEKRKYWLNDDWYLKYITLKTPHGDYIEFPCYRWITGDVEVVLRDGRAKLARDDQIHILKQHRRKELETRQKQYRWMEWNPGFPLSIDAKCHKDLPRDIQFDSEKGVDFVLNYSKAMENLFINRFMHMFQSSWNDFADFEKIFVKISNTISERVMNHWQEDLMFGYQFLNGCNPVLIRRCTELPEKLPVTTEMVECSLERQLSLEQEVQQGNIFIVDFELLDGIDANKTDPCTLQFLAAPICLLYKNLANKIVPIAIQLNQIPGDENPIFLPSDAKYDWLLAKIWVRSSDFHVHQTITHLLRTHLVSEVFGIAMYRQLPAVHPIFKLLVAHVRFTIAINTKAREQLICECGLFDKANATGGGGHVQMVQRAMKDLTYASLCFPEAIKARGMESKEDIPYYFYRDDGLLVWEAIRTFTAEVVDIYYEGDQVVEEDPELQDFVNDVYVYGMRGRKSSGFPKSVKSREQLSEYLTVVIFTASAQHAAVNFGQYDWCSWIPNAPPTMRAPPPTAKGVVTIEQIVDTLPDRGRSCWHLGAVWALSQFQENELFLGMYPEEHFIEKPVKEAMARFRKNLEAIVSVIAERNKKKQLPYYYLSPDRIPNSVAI
Procedure text: Activity of compounds against 5-LO enzyme (LTB4 measurement and/or fluorescence method)
Assay type: biochemical
Measurement context: 5-LO, single concentration of 10 uM in duplicate

For orientation, consider the following solved cases.
> print(dat)
                                    compound  value.observed
 1  CCc1nc2cc(Cl)ccn2c1C(=O)NCc1ccc(N2CC(C)CC(C)C2)cc1 (centres unmarked)       40 to 69%
 2  CCc1nc2ccc(Cl)cn2c1C(=O)NCc1ccc(N2CCN3CCCC3C2)cc1 (centres unmarked)           < 40%
 3            Cc1nc2ccccn2c1C(=O)NCCc1ccccc1           < 40%
 4  CCc1nc2cc(Cl)ccn2c1C(=O)NCc1ccc2[nH]c(-c3ccc(OC(F)(F)F)cc3)nc2c1       40 to 69%
 5  CCc1nc2ccc(Cl)cn2c1C(=O)NCc1ccc(N2CCCC2)cc1           < 40%
 6  CCc1nc2cc(Cl)ccn2c1C(=O)NCc1ccc(C(C)(C)C)cc1       40 to 69%
 7  CCc1nc2ccc(Cl)cn2c1C(=O)NCc1ccc(OC(F)(F)F)cc1       40 to 69%
 8  CCc1nc2cc(C)ccn2c1C(=O)NCc1ccc(N2CCN(c3ccc(F)cc3)CC2)cc1       40 to 69%
 9  CCc1nc2cc(N3CCN(C)CC3)ccn2c1C(=O)NCc1ccc(N2CCOCC2)cc1           < 40%
10  CCc1nc2cc(N3CCN(Cc4ccc(F)cc4)CC3)ccn2c1C(=O)NCc1ccc(N2CCOCC2)cc1       40 to 69%

**Query** Please report the recorded inhibition at 10 µM for `Cc1nc2ccccn2c1C(=O)NCC1CCNCC1` .
**Result** < 40%

**Query** Please report the recorded inhibition at 10 µM for CCc1nc2ccc(Cl)cn2c1C(=O)NCC1CCCc2c1cnn2-c1ccc(F)cc1 (centres unmarked) .
**Result** 40 to 69%
